test: in vitro; settings: SD, HW or BN, rat, plasma
Label true when fraction unbound at 5 h is at or above 0.06; otherwise label false.

compound	assigned.category
CC1CNC(Nc2c(Cl)cccc2Cl)=N1 (stereo not drawn)	true
CCc1c2c(nc3ccc(O)cc13)-c1cc3c(c(=O)n1C2)COC(=O)[C@]3(O)CC [7-ETHYL-10-HYDROXYCAMPTOTHECIN]	true
CCC1(C2=NCCN2)Cc2ccccc2O1 (stereo not drawn)	true
CCC(=O)O[C@]1(C(=O)SCF)[C@H](C)C[C@H]2[C@@H]3C[C@H](F)C4=CC(=O)C=C[C@]4(C)[C@@]3(F)[C@@H](O)C[C@@]21C [FLUTICASONE PROPIONATE]	false
Cc1nc(C(C)C)c(-c2ccc([C@H]3CC[C@H](CC(=O)O)CC3)cc2)nc1C(N)=O	false
CCCSc1ccc2nc(NC(=O)OC)[nH]c2c1	false
CCOC(=O)Nc1ccc(NCc2ccc(F)cc2)nc1N	true
N#Cc1ccc(C[C@@H](C(=O)O)N2CCC(CN3CCC(Oc4ccc(Cl)c(Cl)c4)CC3)CC2)cc1	true
CC(C)(F)C[C@H](N[C@@H](c1ccc(-c2ccc(S(C)(=O)=O)cc2)cc1)C(F)(F)F)C(=O)NC1(C#N)CC1	false
O=c1[nH]c2ccccc2n1C1CCN(CCCC(c2ccc(F)cc2)c2ccc(F)cc2)CC1 [PIMOZIDE]	false
O=C(O)c1cc(O)cc(O)c1 [3,5-DIHYDROXYBENZOIC ACID]	true
Cc1nc(-c2c(F)cc(Cl)cc2-c2cnc([C@@H](C)NC(=O)[C@@](C)(O)C(F)(F)F)c(F)c2)no1	false
Cc1cc(-c2ccc(Cl)c(C(=O)NCC3(O)CCCCCC3)c2)nn1C[C@H](O)CN	true
CSCCC(NC(=O)c1ccccc1)c1nc2ccccc2n1Cc1ccc(C#N)cc1 (stereo not drawn)	false
Cc1c(Sc2ccc(Cl)cc2)c2c(-c3cnccn3)cccc2n1CC(=O)O	false
CC(C)(C)NC(=O)NCCN1CCC(O)(CNC(=O)c2cc(Cl)cc(Cl)c2)CC1	true
Nc1nc2c(c(N3CC[C@@H](N)C3)n1)CCCc1ccccc1-2	true
COc1ccc(Cl)cc1C1(F)C(=O)Nc2cc(C(F)(F)F)ccc21 (stereo not drawn)	false

====

assay: in vitro; settings: human, microsomes
assay.metric: microsomal CLint (µL/min/mg)

> print(dat)
                                    molecule      units  value.comparator  reported.result
 1  O=c1c2c3n(c(=O)cc2[nH]n1-c1ccccc1Cl)CCCN(Cc1ccccc1)C3  µL/min/mg                 =             32.4
 2                O=C(Nc1ccccc1Cl)c1cc[nH]n1  µL/min/mg                 =              138
 3    Cc1cc(CCCOc2c(Cl)cc(C3=NCCO3)cc2Cl)on1  µL/min/mg                 =             66.1
 4  COc1cc2c(cc1-c1c(C)noc1C)ncc1[nH]c(=O)n([C@H](C)c3ccccn3)c12  µL/min/mg                 =             7.59
 5       CCOC(=O)c1c(-c2ccccc2)nc2ccc(C)cn12  µL/min/mg                 >              150
 6  Cc1ccc(S(=O)(=O)Nc2c(C(=O)N[C@@H](C)C(C)(C)C)c(C)nn2C2CCCCC2)cc1  µL/min/mg                 =               33
 7  CCCCNc1cc(C(=O)O)cc(S(N)(=O)=O)c1Oc1ccccc1 [BUMETANIDE]  µL/min/mg                 =                4
 8  O=c1[nH]c2c(O)ccc(CCNCCS(=O)(=O)CCCOCCc3ccccc3)c2s1 [SIBENADET]  µL/min/mg                 =              111
 9     O=C(CN1C2=NCCN2c2ccccc21)c1ccc(Cl)cc1  µL/min/mg                 =                4
10  O=C(NCC12CC3CC(CC(C3)C1)C2)c1ccnc(NCC2CCNCC2)c1Cl  µL/min/mg                 =               68
11  NC1CCN(c2nccc(C(=O)NCC34CC5CC(CC(C5)C3)C4)c2Cl)CC1  µL/min/mg                 =               41
12                 CC(=O)c1cc2ccc(O)cc2oc1=O  µL/min/mg                 =             28.2
13  Cc1cc(C)cc(-c2nnc(SCC(=O)N3CCN(C(=O)c4ccco4)CC3)o2)c1  µL/min/mg                 =             67.6
14   O=C(O)CCc1ccc(OCc2cccc(Oc3ccccc3)c2)cc1  µL/min/mg                 =              4.9
15  CN(C)CCNc1cc(-c2ccccc2)nc2cc(-c3ccc(F)cc3)nn12  µL/min/mg                 =             11.2
16   Cc1c(Oc2ccc(Cl)cc2)c2cc(F)ccc2n1CC(=O)O  µL/min/mg                 <                3
17  Cc1nc(CSc2nc(N[C@H](C)CO)c3sc(N)nc3n2)cs1  µL/min/mg                 =                3
18  Nc1c(C(=O)c2cccc(OC[C@H](O)CO)c2)cnn1-c1ccc(F)cc1  µL/min/mg                 <                3
19  Cc1noc(C)c1-c1ccc(CNS(=O)(=O)c2c(C)noc2C)cc1  µL/min/mg                 =             60.3
20       CCOC(=O)c1c(-c2ccccc2)nc2cc(C)ccn12  µL/min/mg                 >              150
21  O=c1[nH]c2c(O)ccc([C@@H](O)CN[C@H]3CCC[C@@H]3OCc3ccccc3)c2s1  µL/min/mg                 =               26
22  COc1nc(N)nc2c1ncn2[C@@H]1O[C@H](CO)[C@@H](O)[C@H]1O  µL/min/mg                 =             42.7
23  CCOc1ncc(C)c2c1[C@H](c1ccc(C#N)cc1OC)C(C(N)=O)=C(C)N2 [FINERENONE]  µL/min/mg                 =             97.7
24  O=c1[nH]c2c(O)ccc([C@@H](O)CNCCc3ccc(CNCCc4ccccc4F)cc3)c2s1  µL/min/mg                 =               22
25  O=C(O)c1cccnc1N1CCC(CN2CCC(Oc3ccc(Cl)c(Cl)c3)CC2)CC1  µL/min/mg                 =                4
26  Cc1ccc(NC(=O)c2cncs2)cc1-n1cnc2ccc(N3CCN(C)CC3)cc2c1=O  µL/min/mg                 <                3
27  COc1ccc(C#Cc2ccc([C@@H]3[C@H](CO)N4CCCCN(C(=O)Nc5cccc(F)c5)C[C@@H]34)cc2)cc1  µL/min/mg                 =             50.1
28  O=C(NC[C@@H](O)CN1CCC(Oc2ccc(Cl)c(Cl)c2)CC1)c1c[nH]c2ccccc12  µL/min/mg                 <                3
29             C(#Cc1n[nH]c2ccccc12)c1ccccc1  µL/min/mg                 =               35
30  CC[C@H](C)C(=O)O[C@H]1C[C@H](O)C=C2C=C[C@H](C)[C@H](CC[C@@H](O)C[C@@H](O)CC(=O)O)[C@H]21 [PRAVASTATIN]  µL/min/mg                 <                3
31  O=C(O)Cc1ccc(N2CCC(CN3CCC(Oc4ccc(Cl)c(Cl)c4)CC3)CC2)cc1  µL/min/mg                 <                3
32  Cc1cccc([C@H](C)c2c[nH]c(=S)[nH]2)c1C [REZATOMIDINE]  µL/min/mg                 =             24.6
33  C[C@H]1CN(Cc2cc(Cl)ccc2OCC(=O)O)CCN1C(=O)Cc1ccc(F)cc1  µL/min/mg                 <                3
34  COc1cc(Nc2nc3c(cc2F)ncn3[C@@H](CO)c2ccc(F)cn2)n[nH]1  µL/min/mg                 =             7.24
35           NC(=O)Nc1sc(-c2ccccc2)cc1C(N)=O  µL/min/mg                 =               21
36  Cc1ccc(S(=O)(=O)Nc2c(C(=O)N[C@@H](C)C(C)(C)C)c(C)nn2C2CCN(CC(F)(F)F)CC2)cc1  µL/min/mg                 <                3
37  COc1c(Nc2ccc(S(C)(=O)=O)nc2C)ncnc1OC1CCN(C(=O)OC(C)C)CC1 [ADP-597]  µL/min/mg                 =             19.9
38  CCCCNC(=O)NS(=O)(=O)c1ccc(C)cc1 [TOLBUTAMIDE]  µL/min/mg                 =             6.31
39  CC(C)c1ccc(NC(=O)Cn2cnc3c2c(=O)n(C)c(=O)n3C)cc1  µL/min/mg                 =             18.2
40  CC(C)Oc1cc(-n2cnc3ccc(N[C@@H](C)c4ccc(F)cn4)nc32)n[nH]1  µL/min/mg                 >              150
